system: yeast HSP78 (YDR258C) sequence; experiment: Duplex melting temperatures of HSP78 25-mer capture probes (UV spectrophotometer); conditions: 25-mer capture probe duplex with complementary target; design PM = perfectly matched, MM = single mismatch; DNA, LNA_T (T) or LNA_TC (TC) substituted
l = locked nucleic acid (LNA); [5mC] = 5-methylcytosine; d = 2'-deoxy (DNA)
QUANTITY_MEASURED: Average duplex melting temp. (°C)
Just the number in °C, nothing appended.

Worked set:
{"columns": ["SUBSTANCE", "ENDPOINT_RESULT"],
 "data": [
  ["12786 (DNA ATAGCAGCAATGGCCTCGTCTTGGC; DNA at ACG, LNA at T, backbone not given here; further chemistry not fully specified) [compound 12786]", 80.1],
  ["12790 (DNA GTTGCCATGGAGTTCAAAATCTGTC; sugars from the 5' end dllddddlddddlddddddldldld, backbone not given here; further chemistry not fully specified) [compound 12790]", 74.7],
  ["12791 (DNA AGACGTACAGCATCAGAAATAGCAG; DNA at ACG, LNA at T, backbone not given here; further chemistry not fully specified) [compound 12791]", 71.4],
  ["12725 (DNA AAAACGACAGCAAAAGGCTTTCTTC; sugars from the 5' end d18 l3 d1 l2 d1, backbone not given here) [compound 12725]", 65.9]
]}

Now consider the entry below.
Query block: Specify the recorded Average duplex melting temp. for 12820 (DNA TCAATGGCCTTGCACCATATAATTG; sugars from the 5' end llddlddldlldlddldldlddlld, [5mC] at 2, 8, 13, 16, backbone not given here; further chemistry not fully specified) [compound 12820] , system: yeast HSP78 (YDR258C) sequence.
Result block: 83.5
